These data points were gathered from ChEMBL document CHEMBL3991601.

biological target: Platelet-derived growth factor receptor beta (Homo sapiens, UniProt P09619); further: in the data inactive means no Kd found up to 30 µM
Sequence (P09619 whole entry): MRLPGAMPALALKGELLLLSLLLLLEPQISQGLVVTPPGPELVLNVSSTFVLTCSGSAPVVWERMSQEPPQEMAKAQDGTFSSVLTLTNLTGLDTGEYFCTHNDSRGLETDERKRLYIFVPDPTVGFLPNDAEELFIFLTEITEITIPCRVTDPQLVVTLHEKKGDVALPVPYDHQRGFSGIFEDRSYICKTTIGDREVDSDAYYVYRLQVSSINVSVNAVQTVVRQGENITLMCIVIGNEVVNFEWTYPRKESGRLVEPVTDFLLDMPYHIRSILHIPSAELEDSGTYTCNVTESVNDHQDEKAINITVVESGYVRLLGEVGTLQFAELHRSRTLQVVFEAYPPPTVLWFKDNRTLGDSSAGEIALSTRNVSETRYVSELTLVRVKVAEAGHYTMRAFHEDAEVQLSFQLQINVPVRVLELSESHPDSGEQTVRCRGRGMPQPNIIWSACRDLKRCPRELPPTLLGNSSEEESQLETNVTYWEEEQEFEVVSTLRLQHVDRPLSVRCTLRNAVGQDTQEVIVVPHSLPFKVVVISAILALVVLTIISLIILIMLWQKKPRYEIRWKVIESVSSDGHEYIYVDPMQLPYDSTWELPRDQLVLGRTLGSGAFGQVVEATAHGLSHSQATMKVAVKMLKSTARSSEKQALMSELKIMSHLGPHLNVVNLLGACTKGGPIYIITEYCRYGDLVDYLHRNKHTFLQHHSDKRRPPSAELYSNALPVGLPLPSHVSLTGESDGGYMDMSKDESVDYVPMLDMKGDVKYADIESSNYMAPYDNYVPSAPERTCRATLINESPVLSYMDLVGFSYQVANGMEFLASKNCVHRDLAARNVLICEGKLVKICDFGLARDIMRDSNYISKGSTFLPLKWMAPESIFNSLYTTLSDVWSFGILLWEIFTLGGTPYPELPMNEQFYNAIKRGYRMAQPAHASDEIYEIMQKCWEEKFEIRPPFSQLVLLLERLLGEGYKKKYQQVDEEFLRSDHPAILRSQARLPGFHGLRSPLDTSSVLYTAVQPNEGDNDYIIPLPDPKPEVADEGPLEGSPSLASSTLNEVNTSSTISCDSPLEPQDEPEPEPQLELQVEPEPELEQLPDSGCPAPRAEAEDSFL
Active and inactive are the calls of the source.
Reply using exactly one outcome from active, inactive

Solved entries (count: 10):
CC(C)Nc1cc(-c2c[nH]c(C(=O)N[C@H](CO)c3cccc(Cl)c3)c2)c(Cl)cn1: inactive
COc1cc2nccc(Oc3ccc(NC(=O)Nc4cc(C)on4)c(Cl)c3)c2cc1OC: active
CC[C@H](Nc1ncnc2[nH]cnc12)c1nc2cccc(F)c2c(=O)n1-c1ccccc1: inactive
CCCS(=O)(=O)Nc1ccc(F)c(C(=O)c2c[nH]c3ncc(-c4ccc(Cl)cc4)cc23)c1F: inactive
C[C@@H]1CN(Cc2ccc(F)cc2)[C@@H](C)CN1C(=O)c1cc2c(C(=O)C(=O)N(C)C)cn(C)c2cc1Cl: inactive
CCN1CCN(Cc2ccc(-c3cc4c(N[C@H](C)c5ccccc5)ncnc4[nH]3)cc2)CC1: active
O=C(c1ccc(F)c(F)c1Nc1ccc(I)cc1F)N1CC(O)([C@@H]2CCCCN2)C1: inactive
Cc1ccc(NC(=O)c2ccc(CN3CC[C@H](N(C)C)C3)c(C(F)(F)F)c2)cc1Nc1nccc(-c2cncnc2)n1: active
C[C@@H](Nc1cc(F)cc(F)c1)c1cc(C(=O)N(C)C)cc2c(=O)cc(N3CCOCC3)oc12: inactive
Cc1cc([C@@H](C)Nc2ccccc2C(=O)O)c2nc(N3CCOCC3)cc(=O)n2c1: inactive

Exercise: Fill in: this test's call for CCS(=O)(=O)N1CC(CC#N)(n2cc(-c3ncnc4[nH]ccc34)cn2)C1 is ___
Key: inactive

Exercise: Fill in: this test's call for COC(=O)N[C@@H](C)CNc1nccc(-c2cn(C(C)C)nc2-c2cc(Cl)cc(NS(C)(=O)=O)c2F)n1 is ___
Key: inactive

Exercise: Fill in: this test's call for N[C@@H]1CCCN(c2c(/C=C3\SC(=O)NC3=O)cccc2-c2ccccc2)C1 is ___
Key: inactive

Exercise: Fill in: this test's call for O=C(Nc1ccc(-c2ccnc(Nc3ccc(N4CCOCC4)cc3)n2)cc1)C1CCCN1 (configuration not stated) is ___
Key: active

Exercise: Fill in: this test's call for CN1CCC(COc2cnc(-c3cccc(Cn4nc(-c5cccc(C#N)c5)ccc4=O)c3)nc2)CC1 is ___
Key: inactive

Exercise: Fill in: this test's call for CN1N=C(N)c2cn([C@@H]3O[C@H](COP(=O)(O)O)[C@@H](O)[C@H]3O)c3ncnc1c23 [TRICIRIBINE PHOSPHATE] is ___
Key: inactive

Exercise: Fill in: this test's call for Cc1cc2c(F)c(Oc3ncnn4cc(OC[C@@H](C)OC(=O)[C@H](C)N)c(C)c34)ccc2[nH]1 [BRIVANIB ALANINATE] is ___
Key: active

###

molecular target: Protein-tyrosine kinase 2-beta (Homo sapiens); further: in the data inactive means no Kd found up to 30 µM
Sequence (Q14289 whole entry): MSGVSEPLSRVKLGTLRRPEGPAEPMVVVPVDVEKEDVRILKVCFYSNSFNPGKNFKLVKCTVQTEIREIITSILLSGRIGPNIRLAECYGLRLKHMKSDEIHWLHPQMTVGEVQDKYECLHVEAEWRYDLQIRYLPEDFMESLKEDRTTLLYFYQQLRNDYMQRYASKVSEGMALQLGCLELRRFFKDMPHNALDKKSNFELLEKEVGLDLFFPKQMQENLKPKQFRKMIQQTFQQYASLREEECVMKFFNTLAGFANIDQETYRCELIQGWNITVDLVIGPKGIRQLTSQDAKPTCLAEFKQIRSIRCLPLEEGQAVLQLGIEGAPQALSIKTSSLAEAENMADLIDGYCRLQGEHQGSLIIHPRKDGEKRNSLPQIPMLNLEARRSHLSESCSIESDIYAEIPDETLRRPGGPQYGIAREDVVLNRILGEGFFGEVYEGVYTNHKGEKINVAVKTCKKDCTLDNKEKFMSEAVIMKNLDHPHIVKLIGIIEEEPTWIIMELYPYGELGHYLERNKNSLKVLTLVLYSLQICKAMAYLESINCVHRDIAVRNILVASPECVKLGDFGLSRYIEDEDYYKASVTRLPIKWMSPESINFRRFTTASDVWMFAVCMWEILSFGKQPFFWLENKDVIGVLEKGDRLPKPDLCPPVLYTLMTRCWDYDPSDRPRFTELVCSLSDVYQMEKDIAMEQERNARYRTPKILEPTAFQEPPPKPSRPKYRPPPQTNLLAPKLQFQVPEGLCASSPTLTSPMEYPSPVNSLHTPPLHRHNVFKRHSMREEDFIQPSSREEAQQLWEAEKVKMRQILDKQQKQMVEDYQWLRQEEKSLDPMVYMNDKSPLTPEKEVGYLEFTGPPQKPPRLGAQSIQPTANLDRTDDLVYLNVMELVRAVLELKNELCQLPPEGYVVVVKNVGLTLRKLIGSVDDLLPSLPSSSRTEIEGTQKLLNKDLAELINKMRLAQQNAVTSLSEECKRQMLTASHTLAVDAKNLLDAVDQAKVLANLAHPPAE
Activity calls are given as the source filed them.
Reply using exactly one outcome from yes (1) = active, no (0) = inactive

Cn1cc(-c2ccc(F)c(C(F)(F)F)c2)nc1C1CCN(c2ncnc3[nH]ncc23)CC1: no (0)
CC[C@@H]1C(=O)N(C)c2cnc(Nc3ccc(C(=O)N[C@H]4CC[C@H](N5CCN(CC6CC6)CC5)CC4)cc3OC)nc2N1C(C)C: no (0)
O=C(O)[C@]1(Cc2cccc(Nc3nccs3)n2)CC[C@@H](Oc2cccc(Cl)c2F)CC1: yes (1)

Exercise: Fill in: this test's call for COc1cc2nccc(Oc3ccc(NC(=O)NC4CC4)c(Cl)c3)c2cc1C(N)=O is ___
Key: no (0)

###

biological target: LIM domain kinase 2 (Homo sapiens); further: in the data inactive means no Kd found up to 30 µM
Sequence (P53671 whole entry, the tested form may be a part): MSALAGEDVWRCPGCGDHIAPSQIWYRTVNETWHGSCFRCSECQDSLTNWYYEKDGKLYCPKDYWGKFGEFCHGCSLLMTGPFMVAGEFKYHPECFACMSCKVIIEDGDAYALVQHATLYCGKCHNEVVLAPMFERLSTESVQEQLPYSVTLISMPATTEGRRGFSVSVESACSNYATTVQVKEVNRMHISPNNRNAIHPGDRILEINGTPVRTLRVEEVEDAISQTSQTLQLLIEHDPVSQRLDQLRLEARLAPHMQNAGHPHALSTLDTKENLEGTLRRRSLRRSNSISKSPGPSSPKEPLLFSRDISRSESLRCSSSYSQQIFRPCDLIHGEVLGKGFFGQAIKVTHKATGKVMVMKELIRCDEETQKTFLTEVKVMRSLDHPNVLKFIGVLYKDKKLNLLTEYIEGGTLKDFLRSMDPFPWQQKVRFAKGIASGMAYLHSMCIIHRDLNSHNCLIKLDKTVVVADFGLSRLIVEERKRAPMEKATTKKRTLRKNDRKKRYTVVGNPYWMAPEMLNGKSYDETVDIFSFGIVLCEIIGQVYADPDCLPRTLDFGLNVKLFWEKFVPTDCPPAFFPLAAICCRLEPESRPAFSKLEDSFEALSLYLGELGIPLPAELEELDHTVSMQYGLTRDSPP
Activity calls are given as the source filed them.
Reply using exactly one outcome from active, inactive

Cc1cc(-c2cc(O)ccc2Cl)cc2nnc(Nc3ccc(OCCN4CCCC4)cc3)nc12: inactive
O=c1sn(-c2cccc3ccccc23)c(=O)n1Cc1ccccc1 [TIDEGLUSIB]: inactive
CC(=O)Nc1cccc(-n2c(=O)n(C3CC3)c(=O)c3c(Nc4ccc(I)cc4F)n(C)c(=O)c(C)c32)c1 [TRAMETINIB]: inactive
O=C1NC(=O)/C(=C/c2ccc3nccc(-c4ccncc4)c3c2)S1 [GSK-1059615]: inactive
Cc1cc([C@@H](C)Nc2ccccc2C(=O)O)c2nc(N3CCOCC3)cc(=O)n2c1 [AZD-6482]: inactive

# next compound below
Exercise: Fill in: this test's call for CN(C)C(=O)c1cc2cnc(Nc3ccc(N4CCNCC4)cn3)nc2n1C1CCCC1 [RIBOCICLIB] is ___
Key: inactive

###

biological target: Dual specificity mitogen-activated protein kinase kinase 5 (Homo sapiens, UniProt Q13163); further: in the data inactive means no Kd found up to 30 µM
Sequence (Q13163 whole entry): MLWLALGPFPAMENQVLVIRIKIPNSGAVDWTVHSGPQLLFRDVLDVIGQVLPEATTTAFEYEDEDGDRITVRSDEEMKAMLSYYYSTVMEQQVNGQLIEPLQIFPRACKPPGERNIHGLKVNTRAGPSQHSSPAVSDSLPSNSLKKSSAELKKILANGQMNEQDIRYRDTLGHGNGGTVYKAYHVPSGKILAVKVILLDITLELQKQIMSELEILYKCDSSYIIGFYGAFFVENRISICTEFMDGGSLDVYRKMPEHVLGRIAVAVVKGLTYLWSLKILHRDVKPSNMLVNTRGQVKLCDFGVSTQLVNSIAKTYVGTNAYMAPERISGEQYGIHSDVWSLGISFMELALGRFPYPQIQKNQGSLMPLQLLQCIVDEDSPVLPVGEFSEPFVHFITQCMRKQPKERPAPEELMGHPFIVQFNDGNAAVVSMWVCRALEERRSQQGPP
Active and inactive are the calls of the source.
Reply using exactly one outcome from True (active), False (inactive)

Solved entries (count: 8):
Cc1cc2c(F)c(Oc3ncnn4cc(OC[C@@H](C)OC(=O)[C@H](C)N)c(C)c34)ccc2[nH]1 [BRIVANIB ALANINATE]: False
C[C@@H](Nc1cc(F)cc(F)c1)c1cc(C(=O)N(C)C)cc2c(=O)cc(N3CCOCC3)oc12: False
CC(=O)Nc1cccc(-n2c(=O)n(C3CC3)c(=O)c3c(Nc4ccc(I)cc4F)n(C)c(=O)c(C)c32)c1: False
COc1cc2nccc(Oc3ccc(NC(=O)Nc4cc(C)on4)c(Cl)c3)c2cc1OC: False
CO[C@H]1C[C@@H]2CC[C@@H](C)[C@@](O)(O2)C(=O)C(=O)N2CCCC[C@H]2C(=O)O[C@H]([C@H](C)C[C@@H]2CC[C@@H](OCCO)[C@H](OC)C2)CC(=O)[C@H](C)/C=C(\C)[C@@H](O)[C@@H](OC)C(=O)[C@H](C)C[C@H](C)/C=C/C=C/C=C/1C: False
O=C(O)[C@]1(Cc2cccc(Nc3nccs3)n2)CC[C@@H](Oc2cccc(Cl)c2F)CC1: False
O=C(Nc1cccc(Cl)c1)Nc1ncc(CCNc2ncnc3ccsc23)s1: False
CNC(=O)c1ccc(C)c(-n2c(C)cc(OCc3ccc(F)cc3F)c(Br)c2=O)c1: False

Exercise: Fill in: this test's call for COCCNCc1ccc(-c2cc3nccc(Oc4ccc(NC(=S)NC(=O)Cc5ccc(F)cc5)cc4F)c3s2)nc1 is ___
Key: False

Exercise: Fill in: this test's call for COc1cc(OC)c(/C=C/S(=O)(=O)Cc2ccc(OC)c(NCC(=O)O)c2)c(OC)c1 is ___
Key: False

###

The source made the active and inactive calls.
# Kd per entry for RAC-gamma serine/threonine-protein kinase (Homo sapiens)

Sample records with Kd:
C=CC(=O)N1CCC(Oc2cc3c(Nc4ccc(Cl)c(Cl)c4F)ncnc3cc2OC)CC1: > 30 µM (inactive)
O=C1NC(=O)/C(=C/c2ccc3nccc(-c4ccncc4)c3c2)S1: > 30 µM (inactive)
COC(=O)[C@@]1(O)C[C@H]2O[C@]1(C)n1c3ccccc3c3c4c(c5c6ccccc6n2c5c31)C(=O)NC4 [K-252A]: > 30 µM (inactive)

As a next step, examine the compound that follows.
Exercise: What value of Kd has been reported for the following compound? COc1ccc(-c2ccc3c(N4CCOC[C@@H]4C)nc(N4CCOC[C@@H]4C)nc3n2)cc1CO
Key: > 30 µM (inactive)

###

Activity calls are given as the source filed them.
# Kd per entry for Serine/threonine-protein kinase ATR (Homo sapiens, UniProt Q13535)

COC(=O)N[C@@H](C)CNc1nccc(-c2cn(C(C)C)nc2-c2cc(Cl)cc(NS(C)(=O)=O)c2F)n1 [ENCORAFENIB]: > 30 µM (inactive)
Cc1ccc(S(=O)(=O)Nc2nc3ccccc3nc2Nc2ccc3nsnc3c2)cc1: > 30 µM (inactive)
Cc1ccc(NC(=O)c2ccc(CN3CC[C@H](N(C)C)C3)c(C(F)(F)F)c2)cc1Nc1nccc(-c2cncnc2)n1 [BAFETINIB]: > 30 µM (inactive)

As a next step, examine the molecule that follows.
Exercise: What value of Kd has been reported for the following molecule? COc1cc(OC)c(/C=C/S(=O)(=O)Cc2ccc(OC)c(NCC(=O)O)c2)c(OC)c1 [RIGOSERTIB]
Key: > 30 µM (inactive)

###

target: Tyrosine-protein kinase Fyn (Homo sapiens, UniProt P06241); further: in the data inactive means no Kd found up to 30 µM
Sequence (P06241 whole entry): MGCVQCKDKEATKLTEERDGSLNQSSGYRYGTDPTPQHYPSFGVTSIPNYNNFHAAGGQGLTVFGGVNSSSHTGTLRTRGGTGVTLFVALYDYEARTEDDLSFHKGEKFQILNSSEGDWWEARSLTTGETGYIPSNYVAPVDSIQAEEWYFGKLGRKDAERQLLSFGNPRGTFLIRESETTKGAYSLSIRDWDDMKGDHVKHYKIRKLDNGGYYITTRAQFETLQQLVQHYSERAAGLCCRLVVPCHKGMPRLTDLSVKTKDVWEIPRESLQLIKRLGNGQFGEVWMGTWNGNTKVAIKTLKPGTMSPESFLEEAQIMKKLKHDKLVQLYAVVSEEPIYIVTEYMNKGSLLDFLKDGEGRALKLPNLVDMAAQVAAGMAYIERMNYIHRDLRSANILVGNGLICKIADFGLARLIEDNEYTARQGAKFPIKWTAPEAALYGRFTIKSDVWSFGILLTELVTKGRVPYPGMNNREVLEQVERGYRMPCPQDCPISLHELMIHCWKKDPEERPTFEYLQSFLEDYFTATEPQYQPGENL
Activity calls are given as the source filed them.
Reply using exactly one outcome from True = active, False = inactive

Solved entries (count: 2):
COc1ccc(-c2ccc3c(N4CCOC[C@@H]4C)nc(N4CCOC[C@@H]4C)nc3n2)cc1CO: False
Cc1ccc(NC(=O)c2ccc(CN3CC[C@H](N(C)C)C3)c(C(F)(F)F)c2)cc1Nc1nccc(-c2cncnc2)n1: True

Exercise: Fill in: this test's call for CN1CCC(CNc2ccc3ncc(-c4cccc(OC(F)(F)F)c4)n3n2)CC1 is ___
Key: False

Exercise: Fill in: this test's call for N[C@@H]1CCCN(c2c(/C=C3\SC(=O)NC3=O)cccc2-c2ccccc2)C1 is ___
Key: False

Exercise: Fill in: this test's call for CC[C@H](Nc1ncnc2[nH]cnc12)c1nc2cccc(F)c2c(=O)n1-c1ccccc1 is ___
Key: False

Exercise: Fill in: this test's call for Cc1cc(-c2cc(O)ccc2Cl)cc2nnc(Nc3ccc(OCCN4CCCC4)cc3)nc12 is ___
Key: False

Exercise: Fill in: this test's call for C=CC(=O)N1CCC(Oc2cc3c(Nc4ccc(Cl)c(Cl)c4F)ncnc3cc2OC)CC1 is ___
Key: False
